assay: Stability of compound assessed as porcine liver esterase mediated propofol release by measuring half life at 1 mg/ml by HPLC analysis; format: ADME, Sus scrofa; conditions: pig, isolated protein
Give measured t1/2 for each item. Keep answers brief.
Give bare numbers, in min.

Worked set:
COCCN(CCOC)CCOC(=O)Oc1c(C(C)C)cccc1C(C)C.Cl = 6.925
CCN1CCN(CCOC(=O)Oc2c(C(C)C)cccc2C(C)C)CC1.Cl = 4.684
CCN(CC)CC(=O)Oc1c(C(C)C)cccc1C(C)C.Cl = 4.07
CC1CC(C)CN(CCCOC(=O)Oc2c(C(C)C)cccc2C(C)C)C1.Cl (configuration not stated) = 3.428
CC(C)c1cccc(C(C)C)c1OC(=O)CN1CCSCC1.Cl = 22.97
CC(C)c1cccc(C(C)C)c1OC(=O)OCCN1CCN(CCO)CC1.Cl = 63.54
CC(C)c1cccc(C(C)C)c1OC(=O)OCCN1CCSCC1.Cl = 4.03
COCCN(CCOC)CC(=O)Oc1c(C(C)C)cccc1C(C)C.Cl = 6.712

# map each compound to its t1/2
1. CCN(CC)CCC(=O)Oc1c(C(C)C)cccc1C(C)C.Cl
2. CC1CN(CCC(=O)Oc2c(C(C)C)cccc2C(C)C)CC(C)O1.Cl (configuration not stated)
3. CC1CC(C)CN(CCOC(=O)Oc2c(C(C)C)cccc2C(C)C)C1.Cl (configuration not stated)

1: 3.288; 2: 1.429; 3: 9.305

Batch request: t1/2 for each of the following compounds.
1. CCN(CC)CCOC(=O)Oc1c(C(C)C)cccc1C(C)C.Cl
2. CC1CN(CC(=O)Oc2c(C(C)C)cccc2C(C)C)CC(C)O1.Cl (configuration not stated)

1. 8.609
2. 7.227

* * *

biological target: Sodium channel protein type 10 subunit alpha (Homo sapiens, UniProt Q9Y5Y9); experiment: Inhibition of Nav1.8 channel (unknown origin) at resting state at -120 mV conditioning pulse by voltage clamp electrophysiological recording
Sequence (Q9Y5Y9 whole entry): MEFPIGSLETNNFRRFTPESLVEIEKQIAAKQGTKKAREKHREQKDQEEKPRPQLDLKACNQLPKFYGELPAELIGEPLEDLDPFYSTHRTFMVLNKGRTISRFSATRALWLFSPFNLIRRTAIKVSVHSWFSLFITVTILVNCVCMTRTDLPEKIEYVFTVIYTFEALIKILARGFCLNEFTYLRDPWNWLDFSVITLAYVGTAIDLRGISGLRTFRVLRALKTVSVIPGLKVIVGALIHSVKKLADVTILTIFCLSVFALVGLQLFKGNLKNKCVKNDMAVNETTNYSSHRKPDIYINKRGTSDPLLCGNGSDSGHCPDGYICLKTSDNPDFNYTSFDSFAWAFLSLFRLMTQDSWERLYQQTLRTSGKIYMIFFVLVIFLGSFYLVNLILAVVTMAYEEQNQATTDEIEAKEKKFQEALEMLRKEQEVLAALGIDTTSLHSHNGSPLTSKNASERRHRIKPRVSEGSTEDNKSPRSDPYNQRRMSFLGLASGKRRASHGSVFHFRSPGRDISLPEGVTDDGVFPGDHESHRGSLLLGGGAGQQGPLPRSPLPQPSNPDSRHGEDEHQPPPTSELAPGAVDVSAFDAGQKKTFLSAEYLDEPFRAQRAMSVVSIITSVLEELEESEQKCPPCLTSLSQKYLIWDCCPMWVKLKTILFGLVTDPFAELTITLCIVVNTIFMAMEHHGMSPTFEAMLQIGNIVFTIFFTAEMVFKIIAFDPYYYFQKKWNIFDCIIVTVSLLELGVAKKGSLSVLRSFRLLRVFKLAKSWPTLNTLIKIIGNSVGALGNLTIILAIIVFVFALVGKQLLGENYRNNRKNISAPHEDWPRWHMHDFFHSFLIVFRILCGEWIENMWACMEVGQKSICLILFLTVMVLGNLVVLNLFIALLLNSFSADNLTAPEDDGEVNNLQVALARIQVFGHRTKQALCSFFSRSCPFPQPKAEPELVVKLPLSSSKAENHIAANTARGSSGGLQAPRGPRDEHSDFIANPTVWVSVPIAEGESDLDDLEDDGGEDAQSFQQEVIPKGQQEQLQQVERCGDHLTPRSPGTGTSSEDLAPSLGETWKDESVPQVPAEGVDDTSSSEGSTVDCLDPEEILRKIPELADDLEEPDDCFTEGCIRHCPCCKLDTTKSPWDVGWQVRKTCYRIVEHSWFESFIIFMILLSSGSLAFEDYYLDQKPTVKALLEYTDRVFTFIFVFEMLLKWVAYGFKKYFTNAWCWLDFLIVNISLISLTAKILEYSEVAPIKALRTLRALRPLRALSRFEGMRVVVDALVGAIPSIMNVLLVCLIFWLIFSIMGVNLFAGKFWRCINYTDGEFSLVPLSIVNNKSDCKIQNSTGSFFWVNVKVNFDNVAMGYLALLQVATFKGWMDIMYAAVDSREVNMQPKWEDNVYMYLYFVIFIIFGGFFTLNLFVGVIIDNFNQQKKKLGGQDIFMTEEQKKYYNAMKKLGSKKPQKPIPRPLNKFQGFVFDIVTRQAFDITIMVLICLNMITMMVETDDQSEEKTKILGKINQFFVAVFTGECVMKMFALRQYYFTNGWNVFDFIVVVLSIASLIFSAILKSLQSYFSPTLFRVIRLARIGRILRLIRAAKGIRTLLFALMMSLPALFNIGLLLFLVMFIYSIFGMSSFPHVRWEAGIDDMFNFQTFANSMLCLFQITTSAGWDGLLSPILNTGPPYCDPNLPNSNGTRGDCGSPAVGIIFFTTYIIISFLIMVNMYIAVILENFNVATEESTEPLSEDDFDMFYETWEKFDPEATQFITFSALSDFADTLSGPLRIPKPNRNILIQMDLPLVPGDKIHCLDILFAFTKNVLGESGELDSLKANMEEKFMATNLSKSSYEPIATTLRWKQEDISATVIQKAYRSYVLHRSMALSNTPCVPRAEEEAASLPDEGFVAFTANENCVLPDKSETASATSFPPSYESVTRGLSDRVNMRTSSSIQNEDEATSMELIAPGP
Readout name: IC50

Report IC50, nothing else, for this compound: CCN(CC)CCOC(=O)Oc1c(C(C)C)cccc1C(C)C.Cl > 30 µM

* * *

For each record, write down the corresponding Retention time.
molecular target: Sodium channel protein type 10 subunit alpha (Homo sapiens, UniProt Q9Y5Y9); test: Binding affinity to Nav1.8 (unknown origin) expressed in HEK293T cells assessed as retention time of compound at 1 mg/ml by cell membrane chromatography; type: cell membranes
Sequence (Q9Y5Y9 whole entry, looked up): as the sequence (Q9Y5Y9 whole entry) above

Known Retention time results, listed for orientation:
CC1CN(CCC(=O)Oc2c(C(C)C)cccc2C(C)C)CC(C)O1.Cl (centres undefined) = 3.1 min
CC(C)c1cccc(C(C)C)c1OC(=O)OCCN1CCCCC1 = 1 min
CC1CN(CCCOC(=O)Oc2c(C(C)C)cccc2C(C)C)CC(C)O1 (centres undefined) = 12.4 min

As a next step, examine the molecule that follows.
Let me know recorded Retention time for CC(C)c1cccc(C(C)C)c1OC(=O)CN1CCOCC1C (centres undefined) , thanks. 0.8 min

* * *

assay: Stability in rat plasma assessed as half life at 1 mg/ml measured upto 360 mins by HPLC analysis; assay type: ADME, cell-free
Readout name: half-life at 1 mg/ml (min)
Numbers only, in min.

Please report the measured half-life at 1 mg/ml for CCN(CC)CCOC(=O)Oc1c(C(C)C)cccc1C(C)C.Cl 1.7

* * *

biological target: UniProt P05177; experiment: Inhibition of CYP1A2 (unknown origin) using phenacetin as substrate at 10 uM relative to control; type: ADME; details: probe phenacetin
Sequence (P05177 whole entry): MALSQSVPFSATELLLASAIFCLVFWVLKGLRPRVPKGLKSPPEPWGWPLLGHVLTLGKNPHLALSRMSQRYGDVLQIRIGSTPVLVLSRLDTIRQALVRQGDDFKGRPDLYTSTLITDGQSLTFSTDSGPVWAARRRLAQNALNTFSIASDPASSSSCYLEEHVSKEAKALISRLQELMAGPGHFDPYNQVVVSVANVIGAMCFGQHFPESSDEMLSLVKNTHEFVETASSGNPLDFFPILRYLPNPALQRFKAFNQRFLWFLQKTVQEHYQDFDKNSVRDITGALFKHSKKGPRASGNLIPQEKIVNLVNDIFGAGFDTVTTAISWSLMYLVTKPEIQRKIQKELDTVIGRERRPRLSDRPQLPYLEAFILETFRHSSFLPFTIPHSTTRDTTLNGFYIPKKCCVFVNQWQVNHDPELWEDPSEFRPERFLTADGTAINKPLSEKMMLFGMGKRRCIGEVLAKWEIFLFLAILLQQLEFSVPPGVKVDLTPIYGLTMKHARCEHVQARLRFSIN
Readout name: inhibition at 10 µM (%)
One number for each entry, in %.

Please give measured inhibition at 10 µM of the following entry: CCN(CC)CCOC(=O)Oc1c(C(C)C)cccc1C(C)C.Cl 26.2

* * *

experiment: Stability in mouse plasma assessed as half life at 1 mg/ml measured upto 360 mins by HPLC analysis; type: ADME, cell-free
Readout name: half-life at 1 mg/ml (min)
Numbers only, in min.

Report half-life at 1 mg/ml, nothing else, for this compound: CCN(CC)CCOC(=O)Oc1c(C(C)C)cccc1C(C)C.Cl 19.2

* * *

target: Sodium channel protein type 5 subunit alpha (Homo sapiens); test: Inhibition of Nav1.5 channel (unknown origin) at resting state at -120 mV conditioning pulse by voltage clamp electrophysiological recording; assay type: toxicity
Sequence (Q14524 whole entry): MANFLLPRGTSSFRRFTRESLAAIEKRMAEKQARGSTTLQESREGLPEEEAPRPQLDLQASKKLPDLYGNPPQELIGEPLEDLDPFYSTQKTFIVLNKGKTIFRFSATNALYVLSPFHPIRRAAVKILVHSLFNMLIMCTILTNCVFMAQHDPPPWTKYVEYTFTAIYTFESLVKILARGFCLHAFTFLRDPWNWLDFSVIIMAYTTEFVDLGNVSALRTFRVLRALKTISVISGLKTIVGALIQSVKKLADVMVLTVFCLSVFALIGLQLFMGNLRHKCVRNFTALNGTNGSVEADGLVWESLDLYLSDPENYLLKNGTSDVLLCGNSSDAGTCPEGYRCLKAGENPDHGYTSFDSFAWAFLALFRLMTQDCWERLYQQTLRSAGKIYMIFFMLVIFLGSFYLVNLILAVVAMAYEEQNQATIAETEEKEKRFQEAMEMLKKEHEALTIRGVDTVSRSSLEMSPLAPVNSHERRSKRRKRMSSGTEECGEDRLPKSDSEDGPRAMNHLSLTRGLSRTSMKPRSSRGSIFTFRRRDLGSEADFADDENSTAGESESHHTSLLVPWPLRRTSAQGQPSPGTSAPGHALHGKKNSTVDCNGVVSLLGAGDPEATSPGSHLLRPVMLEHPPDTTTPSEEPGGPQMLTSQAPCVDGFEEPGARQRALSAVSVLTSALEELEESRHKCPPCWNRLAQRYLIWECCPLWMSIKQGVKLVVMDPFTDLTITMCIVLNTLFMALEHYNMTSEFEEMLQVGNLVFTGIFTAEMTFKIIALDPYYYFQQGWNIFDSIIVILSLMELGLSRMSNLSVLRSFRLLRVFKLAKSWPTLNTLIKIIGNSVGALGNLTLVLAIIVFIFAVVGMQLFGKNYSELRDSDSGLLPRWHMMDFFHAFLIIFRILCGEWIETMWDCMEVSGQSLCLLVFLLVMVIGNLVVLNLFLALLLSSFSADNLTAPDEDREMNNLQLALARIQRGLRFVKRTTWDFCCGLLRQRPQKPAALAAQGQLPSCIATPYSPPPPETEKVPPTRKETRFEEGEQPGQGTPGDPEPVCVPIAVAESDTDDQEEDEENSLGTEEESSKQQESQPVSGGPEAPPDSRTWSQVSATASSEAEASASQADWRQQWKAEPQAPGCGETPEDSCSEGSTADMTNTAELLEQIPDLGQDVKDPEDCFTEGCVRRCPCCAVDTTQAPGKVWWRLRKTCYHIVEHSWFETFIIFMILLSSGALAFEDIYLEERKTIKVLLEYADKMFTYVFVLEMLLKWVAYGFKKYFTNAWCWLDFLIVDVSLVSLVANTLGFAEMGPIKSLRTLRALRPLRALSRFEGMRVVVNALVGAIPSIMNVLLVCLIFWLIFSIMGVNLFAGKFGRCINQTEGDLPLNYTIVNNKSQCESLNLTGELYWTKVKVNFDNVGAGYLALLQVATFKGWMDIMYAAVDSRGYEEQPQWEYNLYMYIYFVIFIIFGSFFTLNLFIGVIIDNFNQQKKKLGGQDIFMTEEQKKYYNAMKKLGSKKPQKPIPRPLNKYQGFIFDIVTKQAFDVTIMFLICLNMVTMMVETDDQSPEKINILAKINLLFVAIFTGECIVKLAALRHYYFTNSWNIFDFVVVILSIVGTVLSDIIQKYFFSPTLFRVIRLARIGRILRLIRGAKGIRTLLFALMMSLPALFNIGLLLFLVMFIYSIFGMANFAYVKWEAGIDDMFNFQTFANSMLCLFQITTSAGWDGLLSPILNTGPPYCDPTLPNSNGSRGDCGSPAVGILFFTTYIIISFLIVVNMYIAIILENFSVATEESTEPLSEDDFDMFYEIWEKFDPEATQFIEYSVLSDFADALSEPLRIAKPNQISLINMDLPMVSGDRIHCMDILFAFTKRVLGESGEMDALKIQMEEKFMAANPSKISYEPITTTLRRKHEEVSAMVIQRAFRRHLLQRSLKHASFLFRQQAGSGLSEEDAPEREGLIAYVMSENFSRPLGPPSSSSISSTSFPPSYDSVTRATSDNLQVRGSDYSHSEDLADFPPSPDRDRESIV
Readout name: pIC50
One number for each entry, as −log10 of the molar value.

Input CCN(CC)CCOC(=O)Oc1c(C(C)C)cccc1C(C)C.Cl , output reported pIC50. 4.63

* * *

Field: Retention time. Provide a value for each of the compounds that follow.
target: Sodium channel protein type 10 subunit alpha (Homo sapiens, UniProt Q9Y5Y9); assay: Binding affinity to Nav1.8 (unknown origin) expressed in HEK293T cells assessed as retention time of compound at 1 mg/ml by cell membrane chromatography; assay type: cell membranes
Answers are plain numbers, in min.

CC1CN(CC(=O)Oc2c(C(C)C)cccc2C(C)C)CC(C)O1.Cl (stereo unspecified) = 0.5
CCN(CC)CC(=O)Oc1c(C(C)C)cccc1C(C)C.Cl = 11.4
CCN(CC)CCC(=O)Oc1c(C(C)C)cccc1C(C)C.Cl = 18.5
CC(C)c1cccc(C(C)C)c1OC(=O)CCN1CCOCC1 = 0.9
CC1CN(CCOC(=O)Oc2c(C(C)C)cccc2C(C)C)CC(C)O1 (stereo unspecified) = 11.8
CCN(CC)CCOC(=O)Oc1c(C(C)C)cccc1C(C)C.Cl = 112
Cc1cc(F)ccc1Oc1cc(C(F)(F)F)ccc1C(=O)Nc1ccn(COP(=O)(O)O)c(=O)c1 = 2.6
CCN(CC)CCCOC(=O)Oc1c(C(C)C)cccc1C(C)C.Cl = 37.1

Now for the compound whose Retention time we want.
# return recorded Retention time for entry CC(C)c1cccc(C(C)C)c1OC(=O)CN1CCOCC1 0.5

* * *

target: Sodium channel protein type 9 subunit alpha (Homo sapiens, UniProt Q15858); test: Inhibition of Nav1.7 channel (unknown origin) at half inactivation state at -120 mV conditioning pulse by voltage clamp electrophysiological recording
Readout name: IC50 (µM)
Numbers only, in µM.

Look up IC50 of CCN(CC)CCOC(=O)Oc1c(C(C)C)cccc1C(C)C.Cl and report it. 7.43

* * *

target: Sodium channel protein type 9 subunit alpha (Homo sapiens, UniProt Q15858); experiment: Inhibition of Nav1.7 channel (unknown origin) at resting state at -120 mV conditioning pulse by voltage clamp electrophysiological recording
Readout name: IC50

Fill in reported IC50 for this entry: CCN(CC)CCOC(=O)Oc1c(C(C)C)cccc1C(C)C.Cl > 30 µM

* * *

test: Stability of compound assessed as porcine liver esterase mediated propofol release by measuring half life at 1 mg/ml by HPLC analysis; assay type: ADME, Sus scrofa; conditions: pig, isolated protein
Please respond with reported t1/2 for every item in the list.

Recorded results for 8 compounds are shown here.
CC(C)c1cccc(C(C)C)c1OC(=O)CN1CCN(CCO)CC1.Cl = > 2 h
CCN(CC)CCCOC(=O)Oc1c(C(C)C)cccc1C(C)C.Cl = < 0.1435 h
CCN1CCN(CC(=O)Oc2c(C(C)C)cccc2C(C)C)CC1.Cl = > 2 h
CCN1CCN(CCC(=O)Oc2c(C(C)C)cccc2C(C)C)CC1.Cl = > 2 h
CC(C)c1cccc(C(C)C)c1OC(=O)CCN1CCN(C(C)C)CC1.Cl = > 2 h
CCCN(CCO)CCOC(=O)Oc1c(C(C)C)cccc1C(C)C.Cl = < 0.1435 h
CC(C)c1cccc(C(C)C)c1OC(=O)OCCN1CCN(C(C)C)CC1.Cl = > 2 h
CC(C)c1cccc(C(C)C)c1OC(=O)CN1CCS(=O)(=O)CC1.Cl = > 0.5 h

Next item in the queue.
Please report t1/2 for the following compound: CC(C)c1cccc(C(C)C)c1OC(=O)CN1CCN(C(C)C)CC1.Cl > 2 h
